# Tested on: transglutaminase (TGase)
# assay_summary: Measurement of TG (TGase inhibitory activity, monodansyl cadaverine / N,N-dimethylcasein fluorescence, FDSS 3000)
# Type: biochemical
# test_settings: TGase activity with compound (10 mM, 1 μL in 0.1 ml enzyme reaction solution); DMSO control taken as 100
measurement_kind: TGase activity remaining (% of DMSO control = 100)

molecule	result
N#Cc1ccc(B(O)c2cccc(COCc3cccc(B(O)c4ccc(C#N)cc4)c3)c2)cc1	95
Fc1ccc(NCCOBc2cccc(COCc3cccc(BOCCNc4ccc(F)cc4)c3)c2)cc1	102
CC(C)(C)B(OCCN)c1ccccc1 [Example 111, aminoethyl tertiary-butyl phenylborinate]	121
c1ccc(CNCCOB(c2ccccc2)c2ccc(COCc3ccc(B(OCCNCc4ccccc4)c4ccccc4)cc3)cc2)cc1	29
c1ccc(NCCOB(c2ccccc2)c2ccc(COCc3ccc(B(OCCNc4ccccc4)c4ccccc4)cc3)cc2)cc1	23
NCCOB(c1ccc(COCc2ccc(B(OCCN)c3ccc(C(F)(F)F)cc3)cc2)cc1)c1ccc(C(F)(F)F)cc1	19
Cc1ccc(B(OCCNCc2ccccc2)c2ccc(C)c(Cl)c2)cc1Cl	86
CN(C)CCOB(c1cc(F)cc(F)c1)c1cc(F)cc(F)c1	106

====

# Test system: SOC (store operated calcium channel)
# assay_summary: Measurement of SOC IC50 (thapsigargin store depletion, calcium re-addition, CHO cells)
# Format: cell-based
# test_settings: Cricetulus griseus, CHO, read-out: SOC IC50
pIC50: −log10 of the molar value.

compound	pIC50
NCCOB(c1ccccc1)c1ccccc1 [Example 487, 2-aminoethyl diphenylborinate]	5.52

====

# Test system: transglutaminase (TGase)
# assay_summary: Measurement of TG (TGase inhibitory activity, monodansyl cadaverine / N,N-dimethylcasein fluorescence, FDSS 3000)
# Type: biochemical
# test_settings: TGase activity with compound (10 mM, 1 μL in 0.1 ml enzyme reaction solution); DMSO control taken as 100
Decide using TGase activity remaining (% of DMSO control = 100) alone. Strictly below 70: yes. Equal to or above 70: no.

compound	system	category
NCCOB(c1ccccc1)c1ccc(COCc2cccc(B(OCCN)c3ccccc3)c2)cc1	transglutaminase (TGase)	yes
NCCC(N)C(=O)OB(c1ccc(Oc2ccc(B(OC(=O)C(N)CCN)c3cccc4ccccc34)cc2)cc1)c1cccc2ccccc12 (stereo not drawn)	transglutaminase (TGase)	no
OCCCCB(O)c1ccccc1 [Example 114, 4-hydroxybutylphenylborinic acid]	transglutaminase (TGase)	no
NCCOB(c1ccc(Cl)cc1F)c1ccc(Cl)cc1F	transglutaminase (TGase)	no
CN(C)CCOB(c1ccccc1)c1ccc(COCc2ccc(B(OCCN(C)C)c3ccccc3)cc2)cc1	transglutaminase (TGase)	yes
OB(c1cccc(Cl)c1)c1cccc(Cl)c1	transglutaminase (TGase)	yes
Cc1ccc(B(OCCN(C)C)c2ccc(COCc3ccc(B(OCCN(C)C)c4ccc(C)c(Cl)c4)cc3)cc2)cc1Cl	transglutaminase (TGase)	yes
c1ccc(CNCCOB(c2ccccc2)c2cccc3ccccc23)cc1 [Example 204, phenyl naphthyl benzylaminoethylborinate]	transglutaminase (TGase)	yes
CN(C)CCOB(c1ccccc1)c1ccc(Oc2ccc(B(OCCN(C)C)c3ccc(CO)cc3)cc2)cc1	transglutaminase (TGase)	no
Cc1ccc(B(O)c2ccc(COCc3cccc(B(O)c4ccc(C)c(Cl)c4)c3)cc2)cc1Cl	transglutaminase (TGase)	no
CCC(C)B(OCCN)c1ccccc1 (stereo not drawn)	transglutaminase (TGase)	no
OB(c1ccc(COCc2ccc(B(O)c3cccc4ccccc34)cc2)cc1)c1cccc2ccccc12	transglutaminase (TGase)	no
FC(F)(F)c1ccc(C(OB(c2ccccc2)c2ccc(COCc3ccc(B(OC(c4ccc(C(F)(F)F)cc4)c4ccccn4)c4ccccc4)cc3)cc2)c2ccccn2)cc1 (stereo not drawn) [Example 138]	transglutaminase (TGase)	no
Cc1c(Cl)cccc1B(O)c1cccc(Cl)c1C	transglutaminase (TGase)	no
